experiment: Human HepG2 cell viability assay in 384 well format; assay type: toxicity, cell-based; set-up: dose 125 nL, time 70.5 hour; concentration not given beside the values; settings: HepG2 cells, read-out: Inhibition
ENDPOINT LABEL: cytotoxicity at 70.5 h (%)
Number only, in %; omit the unit.

CCc1ncc(C(=O)N2CCN(c3nc(C)cc(OC)n3)CC2)s1
15.8
C[C@H]1CN(C(=O)c2cscn2)C[C@@]12CCN(c1ccsc1)C2=O
-14.4
Cc1noc(C)c1-c1ccc(C2CCCN2C(=O)Cn2ccnc2)nc1 (stereo not drawn)
15.1
CC(C)OCCN1CCN(C(C)c2nc(C3CC3)no2)CC1 (stereo not drawn)
17.9
CC(C)c1nc(CN2CCN(C(=O)Cc3ccccc3Cl)CC2)no1
-1.7

Request: Entry "CCN1CCN(Cc2coc(-c3cccc(F)c3)n2)CC1" has what cytotoxicity at 70.5 h?
Result: 20.2

Request: Entry "CC(C)COC1CCN(C(=O)c2cc3ccccc3c(=O)[nH]2)CC1" has what cytotoxicity at 70.5 h?
Result: -4.65

Request: Entry "CCN1CCn2cc(CNC(=O)c3cnn(C)c3)nc2C1" has what cytotoxicity at 70.5 h?
Result: -110

Request: Entry "COc1ccc(F)cc1NC(=O)NCC1(CN2CCOCC2)CC1" has what cytotoxicity at 70.5 h?
Result: -0.333

Request: Entry CC(C)C(N)CNS(=O)(=O)Cc1cccc2cccnc12 (stereo not drawn) has what cytotoxicity at 70.5 h?
Result: -7.49

Request: Entry "CCn1cnnc1C1CCN(C(=O)c2cc(OC)ccc2OC)CC1" has what cytotoxicity at 70.5 h?
Result: 1

Request: Entry "CN1CCN(Cc2ccccc2Oc2nccc3occc23)CC1" has what cytotoxicity at 70.5 h?
Result: -1.68

Request: Entry Cc1nn(C)c(C)c1C1CCCN1C(=O)CCc1cscn1 (stereo not drawn) has what cytotoxicity at 70.5 h?
Result: -6.08

Request: Entry "O=C(COCc1nc(-c2ccncc2)no1)N1CCCCCC1" has what cytotoxicity at 70.5 h?
Result: -5.87

* * *

assay: Human HepG2 cell viability assay in 384 well format; assay type: toxicity, cell-based; design: dose 125 nL, time 70.5 hour; concentration not given beside the values; conditions: HepG2 cells, read-out: Inhibition
ENDPOINT LABEL: cytotoxicity at 70.5 h (%)
Number only, in %; omit the unit.

CCOc1ccc2[nH]c(=O)c(CN3CCC(O)CC3)cc2c1
-7.88
COc1cc(I)c(Cl)cc1C(=O)N(C)CC(C)(C)O
21

Request: Entry Cc1nc(CNC(C)c2cccc(S(=O)(=O)N(C)C)c2)no1 (configuration not stated) has what cytotoxicity at 70.5 h?
Result: 16.5

Request: Entry "CC(C)N1C(=O)CN(CCCO)CC1(C)C" has what cytotoxicity at 70.5 h?
Result: -9.87

Request: Entry Cn1cc(-c2nnn3c2COC(CNCc2ccccn2)C3)cn1 (configuration not stated) has what cytotoxicity at 70.5 h?
Result: 14.6

* * *

experiment: Human HepG2 cell viability assay in 384 well format; assay type: toxicity, cell-based; set-up: dose 125 nL, time 70.5 hour; concentration not given beside the values; conditions: HepG2 cells, read-out: Inhibition
The entries below are paired with their reported cytotoxicity at 70.5 h.
Number only, in %; omit the unit.

CCC1CN(C)c2ccccc2CN1C(=O)Nc1ccccc1OC (stereo unspecified)
16.8
O=C(Cc1cccc(F)c1)N1CCc2ncnc(N3CCCC3)c2CC1
-1.93
CC(=O)N1CCOC(CNC(=O)c2cccc(CCC(C)(C)O)c2)C1 (stereo unspecified)
8.87
CCn1nc2c(cc1=O)CN(Cc1nc(-c3cccs3)no1)CC2
-12.8
COCC(C)NC(=O)c1nnn(-c2ccc(OC)cc2)n1 (stereo unspecified)
-9.57

Request: Entry CC(=O)N1CCCC(C(=O)NCCc2csc(-c3ccncc3)n2)C1 (stereo unspecified) has what cytotoxicity at 70.5 h?
Result: -5.2

Request: Entry Cc1nn(-c2ncnc3[nH]cnc23)c2c1C(CC(C)C)CC(=O)N2 (stereo unspecified) has what cytotoxicity at 70.5 h?
Result: -2.59

Request: Entry "Cc1cc(CN2CCN(c3ccnc(-c4ccccc4)n3)CC2)no1" has what cytotoxicity at 70.5 h?
Result: -4.67

Request: Entry "CC(C)CNC(=O)c1sccc1-n1cnnn1" has what cytotoxicity at 70.5 h?
Result: -7.28

Request: Entry "O[C@@H]1C[C@H]2CN(Cc3ccsc3)[C@@H](Cc3ccccc3)CN2C1" has what cytotoxicity at 70.5 h?
Result: -1.32

Request: Entry CC(C)C1CN(S(=O)(=O)N(C)C)CCCN1Cc1ccc(F)cc1 (stereo unspecified) has what cytotoxicity at 70.5 h?
Result: 2.12

Request: Entry "Cc1nc(CO[C@@H]2CN(Cc3cccs3)[C@@H]3COC[C@@H]32)cs1" has what cytotoxicity at 70.5 h?
Result: -9.88

Request: Entry "CCc1ccc(C(=O)O)cc1S(=O)(=O)N(C)c1cccc(C)c1" has what cytotoxicity at 70.5 h?
Result: -7.54

Request: Entry CC(C)c1nn(C)c(N(C)C)c1CNCC(O)c1ccccc1F (stereo unspecified) has what cytotoxicity at 70.5 h?
Result: 17.9

Request: Entry "O=C1N(c2ccccc2)Cc2n[nH]c(=O)n21" has what cytotoxicity at 70.5 h?
Result: -0.951

Request: Entry "CCn1cc(CNC(=O)c2nn(CC)cc2Br)cn1" has what cytotoxicity at 70.5 h?
Result: 8.71

Request: Entry "CC(C)c1cc(NC(=O)CN2CCC(N3CCNC3=O)CC2)on1" has what cytotoxicity at 70.5 h?
Result: -3.58

Request: Entry "Cn1c(Nc2cn[nH]c2)c(C#N)c(=O)n(C)c1=O" has what cytotoxicity at 70.5 h?
Result: 11.5

Request: Entry "COc1cccc(CNC(=O)CCOc2ccccc2C)c1" has what cytotoxicity at 70.5 h?
Result: -10.3

Request: Entry "Cc1nc2c(c(NCc3ccc(-c4ccccn4)s3)n1)CCNCC2" has what cytotoxicity at 70.5 h?
Result: -8.23

Request: Entry "CNC(=O)N(Cc1c(F)cccc1F)C1CCCC1" has what cytotoxicity at 70.5 h?
Result: -3.72

Request: Entry "Cc1noc(C)c1C(=O)N[C@@H]1CC[C@@H](Oc2ccccc2)[C@@H]1O" has what cytotoxicity at 70.5 h?
Result: -2.95

Request: Entry "O=C(Cc1ccc2c(c1)CCCC2)Nc1cccnc1N1CCSCC1" has what cytotoxicity at 70.5 h?
Result: -7.86

Request: Entry "Cc1cc(C)cc(CN2CCN(C(=O)C3CCC3)[C@@H]3CS(=O)(=O)C[C@@H]32)c1" has what cytotoxicity at 70.5 h?
Result: -5.88

Request: Entry CN(Cc1csc2ccccc12)C(=O)NC1CCS(=O)(=O)C1 (stereo unspecified) has what cytotoxicity at 70.5 h?
Result: -7.9

Request: Entry "CCc1ccccc1CNC(=O)CCc1cnn(C)c1" has what cytotoxicity at 70.5 h?
Result: -8.72

Request: Entry Cc1ccccc1-n1nc(C)c(CN(C)C(C)Cc2ccccn2)c1C (stereo unspecified) has what cytotoxicity at 70.5 h?
Result: 0.642

* * *

The entries below are paired with their reported cytotoxicity at 70.5 h.
assay: Human HepG2 cell viability assay in 384 well format; type: toxicity, cell-based; parameters: dose 125 nL, time 70.5 hour; concentration not given beside the values; conditions: HepG2 cells, read-out: Inhibition

CC(C)NC(=O)c1cccc(Oc2ccc3nncn3n2)c1
23.3%
CCC(CC)NC(=O)c1ccc2c(c1)C(c1nc[nH]n1)CN2S(C)(=O)=O (centres undefined)
-7.51%
CCOc1ccc(NC(=O)Nc2cnc(N3CCOCC3)nc2)cc1
3.88%
CCOCC(=O)Nc1cc(C)cnc1OC
-3.98%

Request: Entry CC(C)C(NC(=O)c1nc(N2CCOCC2)ncc1Cl)c1cccs1 (centres undefined) has what cytotoxicity at 70.5 h?
Result: -9.67%

Request: Entry CCN(CC1CCCN(CCc2cccc(OC)c2)C1)C(=O)CSC (centres undefined) has what cytotoxicity at 70.5 h?
Result: -8.89%

Request: Entry "CCCNC(=O)c1cc2c(s1)CCN2c1ncccn1" has what cytotoxicity at 70.5 h?
Result: 3.12%

Request: Entry "OCCN(Cc1cccnc1)c1ccc(Br)cn1" has what cytotoxicity at 70.5 h?
Result: -2.3%

Request: Entry CCn1ncc2c1C(COC)N(C(=O)c1ccc3c(c1)OCO3)CC2 (centres undefined) has what cytotoxicity at 70.5 h?
Result: -5.04%

* * *

assay: Human HepG2 cell viability assay in 384 well format; type: toxicity, cell-based; set-up: dose 125 nL, time 70.5 hour; concentration not given beside the values; conditions: HepG2 cells, read-out: Inhibition
ENDPOINT LABEL: cytotoxicity at 70.5 h (%)
Number only, in %; omit the unit.

The following molecules have reported results that may help.
O=C(Cc1ccc(-c2ccccc2)cc1)N1CCOCC(O)C1 (stereo not drawn)
-9.74
O=C(NCc1ccccc1)NCC(O)c1cccc(F)c1 (stereo not drawn)
-6.42

Next molecule, cytotoxicity at 70.5 h to be filled in.
Request: Entry "COc1ccc(NCC(=O)NCC(=O)N2CCCC2)c(C(F)(F)F)c1" has what cytotoxicity at 70.5 h?
Result: -2.2
